- Protocol details: CD thermal denaturation (melting temperature of triple-helical assemblies)
- Assay type: physicochemical
- Measurement parameters: Table 2, constructs that self-assemble
Non-standard residues stand in square brackets, D forms with d. No end group written: not given here. Hyp = O=C(O)[C@@H]1C[C@@H](O)CN1
Endpoint name: Tm (° C.) (°C)
Give the value in °C but do not write °C after it.

Reference set, count: 5
Substance | Endpoint name | Result units | Numeric value
POGPOGPOGPOGPKGPKGPKGPKGPOGPOGDOGDOGDOGDOG (PXGPXGPXGPXGPKGPKGPKGPKGPXGPXGDXGDXGDXGDXG; hydroxyproline residues; MOD_RES (2)..(2) 4Hyp; MOD_RES (5)..(5) 4Hyp; MOD_RES (8)..(8) 4Hyp; MOD_RES (11)..(11) 4Hyp; MOD_RES (26)..(26) 4Hyp; MOD_RES (29)..(29) 4Hyp; MOD_RES (32)..(32) 4Hyp; MOD_RES (35)..(35) 4Hyp; MOD_RES (38)..(38) 4Hyp; MOD_RES (41)..(41) 4Hyp) [OKD] | Tm (° C.) | °C | 49
PKGPKGPKGPOGPOGDOGDOGDOGPOGPOGPO (PKGPKGPKGP[Hyp]GP[Hyp]GD[Hyp]GD[Hyp]GD[Hyp]GP[Hyp]GP[Hyp]GP[Hyp]) [Peptide 3sb-KDO] | Tm (° C.) | °C | 13
POGPOGPCysGPKGPKGPKGPKGPOGPOGDOGDOGDOGDOGPOG (PXGPXGPCGPKGPKGPKGPKGPXGPXGDXGDXGDXGDXGPXG; hydroxyproline residues; MOD_RES (2)..(2) 4Hyp; MOD_RES (5)..(5) 4Hyp; MOD_RES (23)..(23) 4Hyp; MOD_RES (26)..(26) 4Hyp; MOD_RES (29)..(29) 4Hyp; MOD_RES (32)..(32) 4Hyp; MOD_RES (35)..(35) 4Hyp; MOD_RES (38)..(38) 4Hyp; MOD_RES (41)..(41) 4Hyp) [OKD2-C8] | Tm (° C.) | °C | 45
PKGPKGPKGPOGPOGDOGDOGDOGPOGPOGPOG (PKGPKGPKGP[Hyp]GP[Hyp]GD[Hyp]GD[Hyp]GD[Hyp]GP[Hyp]GP[Hyp]GP[Hyp]G) [Peptide 3sbG-KDO] | Tm (° C.) | °C | 26
POGPOGPOGPOGPKGPKGPKGPKGPOGPOGDOGDOGDOGDO (P[Hyp]GP[Hyp]GP[Hyp]GP[Hyp]GPKGPKGPKGPKGP[Hyp]GP[Hyp]GD[Hyp]GD[Hyp]GD[Hyp]GD[Hyp]) [Peptide 4sb-OKD] | Tm (° C.) | °C | 36

// sample POGPOGPOGPKGPKGPKGPOGPOGDOGDOGDO (P[Hyp]GP[Hyp]GP[Hyp]GPKGPKGPKGP[Hyp]GP[Hyp]GD[Hyp]GD[Hyp]GD[Hyp]) [Peptide 3sb-OKD] , its Tm (° C.) was 20

Reported Tm (° C.) ( POGPOGPOGPKGPKGPKGPOGPOGDOGDOGDOG (P[Hyp]GP[Hyp]GP[Hyp]GPKGPKGPKGP[Hyp]GP[Hyp]GD[Hyp]GD[Hyp]GD[Hyp]G) [Peptide 3sbG-OKD] ) = 33
